test system: SN12C renal; assay: NCI tumour cell line growth inhibition, 48 h; in the data active = GI50 below about 0.43 µM; inactive = the rest
Please state which outcome applies, choosing from t (active), f (inactive)

Query: Called result for COc1ccc(C2C3=C(COC3=O)N(CCO)c3cc4c(cc32)OCCO4)cc1OC (stereo not given)
Response: f

Query: Called result for CN1CCN(c2ccc3nc4c(nc3c2C(F)(F)F)C(=O)c2ncccc2C4=O)CC1
Response: f

Query: Called result for O=C(/C=C/c1cccc(B(O)O)c1)c1cccc(B(O)O)c1
Response: f

Query: Called result for CC(C)N(C[C@H]1O[C@@H](n2cnc3c(N)ncnc32)[C@H](O)[C@@H]1O)C1CC(CCc2nc3ccc(C(C)(C)C)cc3[nH]2)C1 (stereo not given in full)
Response: f

Query: Called result for CC(C)CNc1nc(N=[N+]=[N-])nc(NCC(C)C)n1
Response: f

Query: Called result for Cc1c(N2C(=O)/C(=C\c3ccc(N(C)C)cc3)N=C2c2ccccc2)c(=O)n(-c2ccccc2)n1C
Response: f

Query: Called result for CC[O-].CC[O-].O=C([CH-]C(=O)c1ccccc1)c1ccccc1.O=C([CH-]C(=O)c1ccccc1)c1ccccc1.[Ti+4]
Response: f

Query: Called result for C=C(C)[C@@H]1CC[C@]2(C)[C@H](C=CC3=C4C[C@@](C)(CO)CC[C@]4(C)CC[C@]32C)[C@@]1(C)CCCN
Response: f

Query: Called result for C[C@@H]1CN2[C@H]3[C@@H]1CC[C@]31CCC(=O)O[C@]1(C)[C@@H]1CC[C@H]3CCC=C3[C@@H]12
Response: f

Query: Called result for CCN1C(=O)N(CC)C2C1NN=c1s/c(=C\c3ccccc3)c(=O)n12 (stereo not given)
Response: f

Query: Called result for CCc1ccccc1-n1c(N)c(C#N)c(-c2ccc(OC)c(OC)c2)c(C#N)c1=O
Response: f

Query: Called result for O=C(NO)c1cnc(N2CCN(S(=O)(=O)c3ccc4ccccc4c3)CC2)nc1
Response: t

Query: Called result for COc1ccc(-n2cc(-c3ccc(OC)c(OC)c3)nc2SCc2ccccc2)cc1Cl
Response: f

Query: Called result for COc1ccc(NC(=O)O[C@H]2[C@H](O[C@H]3[C@@H](O)COC(O[C@H]4C[C@H]5[C@@H]6CC=C7C[C@@H](O)CC[C@]7(C)[C@H]6CC[C@]5(C)[C@H]4[C@H](C)C(=O)CCC(C)C)[C@@H]3OC(C)=O)OC[C@@H](O)[C@@H]2O)cc1 (stereo not given in full)
Response: f

Query: Called result for COc1ccc(-n2sc(=O)n(Cc3ccc(COC(=O)C(C)c4ccc(CC(C)C)cc4)cc3)c2=O)cc1 (stereo not given)
Response: f
